Biological target: T1, mRBM20(513-621) R591M (Mus musculus, UniProt Q3UQS8 513-621, R591M)
T1 sequence: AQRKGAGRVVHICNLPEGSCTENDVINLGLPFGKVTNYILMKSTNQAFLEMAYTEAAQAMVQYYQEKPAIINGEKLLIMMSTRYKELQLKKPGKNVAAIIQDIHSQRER
Assay: ITC
measurementName: Kd (µM)
Supply the numeric figure in µM, leaving out any unit text.

## Input // Kd lookup, key: AUCUUA (ssRNA)
## Output 12.4
